The following compounds are listed with their measured nuclear beta-catenin stimulation values.
test: stimulators of nuclear beta-catenin in C2C12, primary screen, imaging, WNT3A-conditioned medium, mouse C2C12, NPC library (AID 1117326); details: at 10 µM, active compounds read high; also: reference of the scale not given here
Calls of active or inactive are those of the source. Rule as the data show it: active = nuclear beta-catenin stimulation mostly above about 4.2% (no sharp cut-off); inactive = mostly below about 10%.

// worked examples, nuclear beta-catenin stimulation included
> print(dat)
                                   compound           result
1  O=C(NCC(O)CO)c1c(I)c(C(=O)NCC(O)CO)c(I)c(N(CCO)C(=O)CO)c1I (stereo unspecified)  0.6% (inactive)
2  Cc1cc(C(C#N)c2ccc(Cl)cc2)c(Cl)cc1NC(=O)c1cc(I)cc(I)c1O (stereo unspecified)  2.4% (inactive)
3  O=[N+]([O-])c1cccc(S(=O)(=O)NCCNS(=O)(=O)c2cccc([N+](=O)[O-])c2)c1  0.3% (inactive)
4         CN(C)C/C=C(/c1ccc(Br)cc1)c1cccnc1  1.1% (inactive)
5  C[C@H]1C[C@H]2[C@@H]3CCC4=CC(=O)C=C[C@]4(C)[C@H]3C(=O)C[C@]2(C)[C@@]1(O)C(=O)CO  0.1% (inactive)

Field nuclear beta-catenin stimulation (entry COC(=O)C1=C(C#N)NC(C)=C(C(=O)OC(C)C)C1c1cccc([N+](=O)[O-])c1 (stereo unspecified) ) reads -1.3% (inactive)

Field nuclear beta-catenin stimulation (entry CC1(C)[C@@H]2CC[C@@]1(C)C(=O)C2 ) reads 0.2% (inactive)

Field nuclear beta-catenin stimulation (entry C[C@H]1[C@H](NC(=O)/C(=N/OC(C)(C)C(=O)O)c2csc(N)n2)C(=O)N1S(=O)(=O)O (stereo in doubt) ) reads 5% (inactive)

Field nuclear beta-catenin stimulation (entry CN(C)C(=O)COC(=O)Cc1ccc(OC(=O)c2ccc(N=C(N)N)cc2)cc1 ) reads 1.4% (inactive)

Field nuclear beta-catenin stimulation (entry COCCCOc1ccnc(CS(=O)c2nc3ccccc3[nH]2)c1C (stereo unspecified) ) reads 0% (inactive)

Field nuclear beta-catenin stimulation (entry C=CCN1C[C@H](C(=O)N(CCCN(C)C)C(=O)NCC)C[C@@H]2c3cccc4[nH]cc(c34)C[C@H]21 ) reads -1.1% (inactive)

Field nuclear beta-catenin stimulation (entry N[C@@H](COP(=O)(O)O)C(=O)O ) reads 0.6% (inactive)

Field nuclear beta-catenin stimulation (entry CC(=O)OCC(=O)[C@@]1(O)CCC2C3CCC4=CC(=O)CC[C@]4(C)C3[C@@H](O)C[C@@]21C (stereo partly specified) ) reads -1.1% (inactive)

Field nuclear beta-catenin stimulation (entry O=C(OCCOCCO)c1ccccc1Nc1cccc(C(F)(F)F)c1 ) reads -1.7% (inactive)

Field nuclear beta-catenin stimulation (entry Cc1cccc(C)c1NC(=O)CC12CCCN1CCC2 ) reads 4.2% (inactive)
